Each entry below carries its reported GI50 at 72 h.
Test: Toxicity to normal cells (SRB)
Assay type: cell-based, human
Conditions: human, Hs27 fibroblasts (normal cell line)
Counter-ions that a name gives are not always drawn.

Some molecules with known GI50 at 72 h results, for comparison:
{"molecule": "CN[C@@H](C)C(=O)N[C@H](C(=O)N1CCC[C@H]1C(=O)Nc1cc2c(Nc3ccc(N4CCOCC4)cc3)ncnc2cc1OC)C(C)(C)C [Example 90, hydrochloride]", "GI50 at 72 h": "> 10 µM"}
{"molecule": "CCN1CCN(c2ccc(Nc3ncnc4cc(OC)c(NC(=O)[C@@H]5CCCN5C(=O)[C@@H](NC(=O)[C@H](C)NC)C(C)(C)C)cc34)cc2)CC1 [Example 60]", "GI50 at 72 h": "> 10 µM"}

Fill in reported GI50 at 72 h for this entry: CN[C@@H](C)C(=O)N[C@H](C(=O)N1CCC[C@H]1C(=O)Nc1cc2c(NCc3ccccc3)ncnc2cc1OC)C(C)(C)C.Cl [Example 18, hydrochloride]
> 10 µM
